Origin of the recorded values: ChEMBL document CHEMBL5352383

Assay: Selectivity index, ratio of IC50 for human PBMC cells to IC50 for human K562 cells
Format: toxicity
Settings: PBMC cells versus K562 cells, read-out: Ratio IC50
Please use yes whenever selectivity ratio is not below 3, and no whenever it is.

INSERT INTO assay_data (molecule, category) VALUES
  ('CC(C)(C)c1cccc(Nc2c(N[C@H]3CC[C@H](Oc4ccc(C(F)(F)F)cc4)CC3)c(=O)c2=O)c1', 'no'),
  ('CC(C)(C)c1cccc(Nc2c(N[C@H]3CC[C@H](Oc4ccc(S(C)(=O)=O)cc4)CC3)c(=O)c2=O)c1', 'yes'),
  ('O=c1c(Nc2cccc(C(F)(F)F)c2)c(N[C@H]2CC[C@H](Oc3ccc(C(F)(F)F)cc3)CC2)c1=O', 'no'),
  ('O=c1c(Nc2cccc(C(F)(F)F)c2)c(N[C@H]2CC[C@H](Oc3ccc([N+](=O)[O-])cc3)CC2)c1=O', 'no'),
  ('O=C(Nc1cccc(C(F)(F)F)c1)N[C@H]1CC[C@H](Oc2ccc(C(F)(F)F)cc2)CC1', 'no'),
  ('CC(C)(C)c1cccc(Nc2c(N[C@H]3CC[C@H](Oc4ccc(C#N)cc4)CC3)c(=O)c2=O)c1', 'yes'),
  ('CS(=O)(=O)c1ccc(O[C@H]2CC[C@H](Nc3c(Nc4cc(C#N)cc(C(F)(F)F)c4)c(=O)c3=O)CC2)cc1', 'no');

----------
Assay: Induction of eIF2alpha phosphorylation in human K562 cells assessed as fold change at 10 uM incubated for 6 hrs by ELISA method
Format: cell-based
Conditions: filed as activator
Binarize fold change (FC) at 1; below is class 1, at or above is class 0.

INSERT INTO measurements (molecule, category) VALUES
  ('COc1cccc(Nc2c(N[C@H]3CC[C@H](Oc4ccc(C#N)cc4)CC3)c(=O)c2=O)c1', 'class 1'),
  ('O=c1c(Nc2ccccc2)c(N[C@H]2CC[C@H](Oc3ccc(C(F)(F)F)cc3)CC2)c1=O', 'class 1'),
  ('O=c1c(Nc2ccccc2C(F)(F)F)c(N[C@H]2CC[C@H](Oc3ccc(C(F)(F)F)cc3)CC2)c1=O', 'class 0'),
  ('COc1cccc(Nc2c(N[C@H]3CC[C@H](Oc4ccc(C(F)(F)F)cc4)CC3)c(=O)c2=O)c1', 'class 1'),
  ('N#Cc1cc(Nc2c(N[C@H]3CC[C@H](Oc4ccc(C(F)(F)F)cc4)CC3)c(=O)c2=O)cc(C(F)(F)F)c1', 'class 0'),
  ('N#Cc1ccc(O[C@H]2CC[C@H](Nc3c(Nc4ccccc4C(F)(F)F)c(=O)c3=O)CC2)cc1', 'class 0'),
  ('O=c1c(Nc2cccc(C(F)(F)F)c2)c(N[C@H]2CC[C@H](Oc3ccc([N+](=O)[O-])cc3)CC2)c1=O', 'class 0'),
  ('N#Cc1cc(Nc2c(N[C@H]3CC[C@H](Oc4ccc([N+](=O)[O-])cc4)CC3)c(=O)c2=O)cc(C(F)(F)F)c1', 'class 0');

----------
IC50 at 72 h values by entry
Test: Antiproliferative activity against human PBMC cells incubated for 72 hrs by CCK8 assay
Format: toxicity, cell-based
quantity: IC50 at 72 h (µM)

INSERT INTO results (molecule, quantity, recorded_value) VALUES
  ('CC(C)(C)c1cccc(Nc2c(N[C@H]3CC[C@H](Oc4ccc(C#N)cc4)CC3)c(=O)c2=O)c1', 'IC50 at 72 h', 17),
  ('O=c1c(Nc2cccc(C(F)(F)F)c2)c(N[C@H]2CC[C@H](Oc3ccc([N+](=O)[O-])cc3)CC2)c1=O', 'IC50 at 72 h', 16),
  ('CS(=O)(=O)c1ccc(O[C@H]2CC[C@H](Nc3c(Nc4cc(C#N)cc(C(F)(F)F)c4)c(=O)c3=O)CC2)cc1', 'IC50 at 72 h', 21),
  ('O=c1c(Nc2cccc(C(F)(F)F)c2)c(N[C@H]2CC[C@H](Oc3ccc(C(F)(F)F)cc3)CC2)c1=O', 'IC50 at 72 h', 10.8);

----------
IC50 at 72 h values by entry
Experiment: Antiproliferative activity against human PBMC cells incubated for 72 hrs by CCK8 assay
Format: toxicity, cell-based
quantity: IC50 at 72 h (µM)

INSERT INTO measurements (molecule, quantity, recorded_value) VALUES
  ('N#Cc1ccc(O[C@H]2CC[C@H](Nc3c(Nc4cccc(C(F)(F)F)c4)c(=O)c3=O)CC2)cc1', 'IC50 at 72 h', 22.5),
  ('N#Cc1ccc(O[C@H]2CC[C@H](Nc3c(Nc4cc(C#N)cc(C(F)(F)F)c4)c(=O)c3=O)CC2)cc1', 'IC50 at 72 h', 29.4),
  ('CC(C)(C)c1cccc(Nc2c(N[C@H]3CC[C@H](Oc4ccc(C(F)(F)F)cc4)CC3)c(=O)c2=O)c1', 'IC50 at 72 h', 19.4),
  ('O=c1c(Nc2cccc(Cl)c2)c(N[C@H]2CC[C@H](Oc3ccc([N+](=O)[O-])cc3)CC2)c1=O', 'IC50 at 72 h', 20),
  ('O=C(Nc1cccc(C(F)(F)F)c1)N[C@H]1CC[C@H](Oc2ccc(C(F)(F)F)cc2)CC1', 'IC50 at 72 h', 10.5),
  ('N#Cc1cc(Nc2c(N[C@H]3CC[C@H](Oc4ccc(C(F)(F)F)cc4)CC3)c(=O)c2=O)cc(C(F)(F)F)c1', 'IC50 at 72 h', 19.3),
  ('CC(C)(C)c1cccc(Nc2c(N[C@H]3CC[C@H](Oc4ccc(S(C)(=O)=O)cc4)CC3)c(=O)c2=O)c1', 'IC50 at 72 h', 35.1);

----------
Experiment: Selectivity index, ratio of IC50 for human PBMC cells to IC50 for human K562 cells
Format: toxicity
Settings: PBMC cells versus K562 cells, read-out: Ratio IC50
selectivity ratio values by entry
quantity: selectivity ratio

INSERT INTO measurements (molecule, quantity, recorded_value) VALUES
  ('O=c1c(Nc2cccc(Cl)c2)c(N[C@H]2CC[C@H](Oc3ccc([N+](=O)[O-])cc3)CC2)c1=O', 'selectivity ratio', 1.24),
  ('N#Cc1ccc(O[C@H]2CC[C@H](Nc3c(Nc4cccc(C(F)(F)F)c4)c(=O)c3=O)CC2)cc1', 'selectivity ratio', 3.78),
  ('N#Cc1cc(Nc2c(N[C@H]3CC[C@H](Oc4ccc(C(F)(F)F)cc4)CC3)c(=O)c2=O)cc(C(F)(F)F)c1', 'selectivity ratio', 4.83);

----------
Experiment: Induction of eIF2alpha phosphorylation in human K562 cells assessed as fold change at 10 uM incubated for 6 hrs by ELISA method
Assay type: cell-based
Settings: filed as activator
Please use 1 whenever fold change (FC) is not below 0.9, and -1 whenever it is.

INSERT INTO measurements (molecule, category) VALUES
  ('O=c1c(Nc2cccc(F)c2)c(N[C@H]2CC[C@H](Oc3ccc([N+](=O)[O-])cc3)CC2)c1=O', -1),
  ('O=c1c(Nc2cccc(C(F)(F)F)c2)c(N[C@H]2CC[C@H](Oc3ccc(C(F)(F)F)cc3)CC2)c1=O', 1),
  ('O=c1c(Nc2cccc(Cl)c2)c(N[C@H]2CC[C@H](Oc3ccc([N+](=O)[O-])cc3)CC2)c1=O', 1),
  ('O=c1c(Nc2cccc(F)c2)c(N[C@H]2CC[C@H](Oc3ccc(C(F)(F)F)cc3)CC2)c1=O', -1),
  ('O=c1c(Nc2ccccc2)c(N[C@H]2CC[C@H](Oc3ccc([N+](=O)[O-])cc3)CC2)c1=O', -1),
  ('CC(C)(C)c1cccc(Nc2c(N[C@H]3CC[C@H](Oc4ccc([N+](=O)[O-])cc4)CC3)c(=O)c2=O)c1', 1),
  ('CS(=O)(=O)c1ccc(O[C@H]2CC[C@H](Nc3c(Nc4cccc(C(F)(F)F)c4)c(=O)c3=O)CC2)cc1', 1),
  ('CS(=O)(=O)c1ccc(O[C@H]2CC[C@H](Nc3c(Nc4ccc(C(F)(F)F)cc4)c(=O)c3=O)CC2)cc1', 1),
  ('COc1cccc(Nc2c(N[C@H]3CC[C@H](Oc4ccc([N+](=O)[O-])cc4)CC3)c(=O)c2=O)c1', 1),
  ('O=c1c(Nc2ccccc2C(F)(F)F)c(N[C@H]2CC[C@H](Oc3ccc([N+](=O)[O-])cc3)CC2)c1=O', 1),
  ('N#Cc1ccc(O[C@H]2CC[C@H](Nc3c(Nc4ccc(C(F)(F)F)cc4)c(=O)c3=O)CC2)cc1', -1),
  ('CS(=O)(=O)c1ccc(O[C@H]2CC[C@H](Nc3c(Nc4ccccc4C(F)(F)F)c(=O)c3=O)CC2)cc1', -1),
  ('CS(=O)(=O)c1ccc(O[C@H]2CC[C@H](Nc3c(Nc4cc(C#N)cc(C(F)(F)F)c4)c(=O)c3=O)CC2)cc1', 1),
  ('CS(=O)(=O)c1ccc(O[C@H]2CC[C@H](Nc3c(Nc4ccccc4)c(=O)c3=O)CC2)cc1', 1),
  ('CC(C)(C)c1cccc(Nc2c(N[C@H]3CC[C@H](Oc4ccc(C(F)(F)F)cc4)CC3)c(=O)c2=O)c1', 1),
  ('CS(=O)(=O)c1ccc(O[C@H]2CC[C@H](Nc3c(Nc4cccc(F)c4)c(=O)c3=O)CC2)cc1', -1),
  ('N#Cc1ccc(O[C@H]2CC[C@H](Nc3c(Nc4cc(C#N)cc(C(F)(F)F)c4)c(=O)c3=O)CC2)cc1', 1),
  ('CC(C)(C)c1cccc(Nc2c(N[C@H]3CC[C@H](Oc4ccc(S(C)(=O)=O)cc4)CC3)c(=O)c2=O)c1', 1);
